Reported Ki by item:
# measurement target: GABAA2 receptors (α2, β3, γ2 receptor subunits transfected into Sf9 cells) (Homo sapiens, UniProt P18507+P47869)
# Sequence (P47869 29-451, one chain of several): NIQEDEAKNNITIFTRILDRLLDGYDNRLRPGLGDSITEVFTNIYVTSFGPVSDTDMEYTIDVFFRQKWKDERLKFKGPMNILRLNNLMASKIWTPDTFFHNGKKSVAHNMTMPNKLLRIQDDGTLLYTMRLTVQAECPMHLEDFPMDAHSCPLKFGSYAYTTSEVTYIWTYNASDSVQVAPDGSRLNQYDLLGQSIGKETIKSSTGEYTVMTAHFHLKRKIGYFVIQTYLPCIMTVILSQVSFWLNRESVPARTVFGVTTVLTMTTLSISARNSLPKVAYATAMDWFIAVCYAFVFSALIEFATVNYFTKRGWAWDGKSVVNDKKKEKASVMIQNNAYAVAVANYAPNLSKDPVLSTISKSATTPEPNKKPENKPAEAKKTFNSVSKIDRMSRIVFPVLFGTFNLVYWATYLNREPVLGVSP
# Sequence (P28472 26-473 partner, one chain of several): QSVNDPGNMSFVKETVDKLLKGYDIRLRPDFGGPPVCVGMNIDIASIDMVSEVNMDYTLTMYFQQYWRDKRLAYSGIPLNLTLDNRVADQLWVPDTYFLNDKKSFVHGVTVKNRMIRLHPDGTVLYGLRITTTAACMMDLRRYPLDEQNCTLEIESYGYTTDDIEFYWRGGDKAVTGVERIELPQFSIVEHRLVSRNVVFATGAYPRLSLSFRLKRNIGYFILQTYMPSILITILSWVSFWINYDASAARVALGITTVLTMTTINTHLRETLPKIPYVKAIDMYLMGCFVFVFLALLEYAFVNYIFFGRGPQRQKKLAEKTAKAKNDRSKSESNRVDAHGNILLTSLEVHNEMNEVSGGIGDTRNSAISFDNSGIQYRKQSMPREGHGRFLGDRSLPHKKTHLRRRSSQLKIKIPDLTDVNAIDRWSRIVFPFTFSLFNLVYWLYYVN
# assay notes: GABAA2 Binding Method ([3H]-Flunitrazepam displacement)
# condition description: [3H]-Flunitrazepam ~2 nM, α2β3γ2 Sf9 membranes, 1 hr at 4° C.
property measured: Ki (nM)

[[record]]
molecule = "CCCN1Cc2nc3c(-c4cccnc4C)cccc3c(N)c2C1=O"
property_measured = "Ki"
endpoint_unit = "nM"
value_observed = 11.4

[[record]]
molecule = "CCCN1Cc2nc3c(-c4ccc(OC)cc4F)cccc3c(N)c2C1=O"
property_measured = "Ki"
endpoint_unit = "nM"
value_observed = 12.8

[[record]]
molecule = "Nc1c2c(nc3c(-c4nccnc4F)cccc13)CN(C1CCC1)C2=O"
property_measured = "Ki"
endpoint_unit = "nM"
value_observed = 2.17

[[record]]
molecule = "Cc1nc(Cl)ccc1-c1cccc2c(N)c3c(nc12)CN(C1CC1)C3=O"
property_measured = "Ki"
endpoint_unit = "nM"
value_observed = 28

[[record]]
molecule = "CCCN1Cc2nc3c(-c4cc(-c5ccncc5)ccc4OC)cccc3c(N)c2C1=O"
property_measured = "Ki"
endpoint_unit = "nM"
value_observed = 51.1

[[record]]
molecule = "CCCN1Cc2nc3c(-c4cc(Cl)ccc4OC)cccc3c(N)c2C1=O"
property_measured = "Ki"
endpoint_unit = "nM"
value_observed = 39.6

[[record]]
molecule = "CCCN1Cc2nc3c(-c4cc(C)cc(C)c4)cccc3c(N)c2C1=O"
property_measured = "Ki"
endpoint_unit = "nM"
value_observed = 94.3

[[record]]
molecule = "N#Cc1ccccc1-c1cccc2c(N)c3c(nc12)CN(C1CC1)C3=O"
property_measured = "Ki"
endpoint_unit = "nM"
value_observed = 16.3

[[record]]
molecule = "COc1ccc(-c2cccc3c(N)c4c(nc23)CN(C)C4=O)c(OC)n1"
property_measured = "Ki"
endpoint_unit = "nM"
value_observed = 290

[[record]]
molecule = "COc1cc(-c2cccc3c(N)c4c(nc23)CN(C2CCC2)C4=O)c(C#N)cn1"
property_measured = "Ki"
endpoint_unit = "nM"
value_observed = 15.3

[[record]]
molecule = "Cn1cc(-c2cccc3c(N)c4c(nc23)CN(C2CCC2)C4=O)cn1"
property_measured = "Ki"
endpoint_unit = "nM"
value_observed = 3.76

[[record]]
molecule = "CCCN1Cc2nc3c(-c4ccc(C)nc4)cccc3c(N)c2C1=O"
property_measured = "Ki"
endpoint_unit = "nM"
value_observed = 92.2

[[record]]
molecule = "Cc1ccncc1-c1cccc2c(N)c3c(nc12)CN(C)C3=O"
property_measured = "Ki"
endpoint_unit = "nM"
value_observed = 64.9

[[record]]
molecule = "COc1ccc(-c2cccc3c(N)c4c(nc23)CN(C2CCC2)C4=O)cn1"
property_measured = "Ki"
endpoint_unit = "nM"
value_observed = 6.48

[[record]]
molecule = "CCCN1Cc2nc3c(-c4cncc(OC)c4)cccc3c(N)c2C1=O"
property_measured = "Ki"
endpoint_unit = "nM"
value_observed = 63

[[record]]
molecule = "CCN1Cc2nc3c(-c4cc(OC)ccc4F)c(F)ccc3c(N)c2C1=O"
property_measured = "Ki"
endpoint_unit = "nM"
value_observed = 1.4

[[record]]
molecule = "COc1ncc(-c2c(F)ccc3c(N)c4c(nc23)CN(C2CC2)C4=O)c(OC)n1"
property_measured = "Ki"
endpoint_unit = "nM"
value_observed = 6.64

[[record]]
molecule = "CCN1Cc2nc3c(-c4cc(C)cc(C)c4)cccc3c(N)c2C1=O"
property_measured = "Ki"
endpoint_unit = "nM"
value_observed = 14.2

[[record]]
molecule = "CCCN1Cc2nc3c(-c4ccsc4)cccc3c(N)c2C1=O"
property_measured = "Ki"
endpoint_unit = "nM"
value_observed = 30.8

[[record]]
molecule = "CCCN1Cc2nc3c(-c4ccc(F)cc4F)cccc3c(N)c2C1=O"
property_measured = "Ki"
endpoint_unit = "nM"
value_observed = 14.9

[[record]]
molecule = "CCCN1Cc2nc3c(-c4cccc(C)c4)cccc3c(N)c2C1=O"
property_measured = "Ki"
endpoint_unit = "nM"
value_observed = 44.6


* * *

# measurement target: GABAA2 receptors (α2, β3, γ2 receptor subunits transfected into Sf9 cells) (Homo sapiens, UniProt P18507+P47869)
# assay notes: GABAA2 Binding Method ([3H]-Flunitrazepam displacement)
# condition description: [3H]-Flunitrazepam ~2 nM, α2β3γ2 Sf9 membranes, 1 hr at 4° C.
# Protocol: In some embodiments, the binding test is directed to a subtype of GABAA receptors, such as GABAA1 receptors (i.e., those containing the α1 subunit), GABAA2 receptors (i.e., those containing the α2 subunit), GABAA3 receptors (i.e., those containing the α3 subunit) and GABAA5 receptors (i.e., those containing the α5 subunit). [^3H]-Flunitrazepam (Cat #NET567): Prepare 10× stock=20 nM, [F} in assay=˜2 nM 1. […] Data is analyzed by calculating percent of control, IC50, and Ki in an XLfit template. […]
pKi: −log10 of the molar value.
Quick reference for pKi among some molecules
property measured: pKi

[[record]]
molecule = "CCCN1Cc2nc3c(-c4ccc(F)nc4F)cccc3c(N)c2C1=O"
value_observed = 7.12

[[record]]
molecule = "COc1nnccc1-c1cccc2c(N)c3c(nc12)CN(C1CCC1)C3=O"
value_observed = 8.33

[[record]]
molecule = "CCN1Cc2nc3c(-c4ccc(OC)c(OC)c4)cccc3c(N)c2C1=O"
value_observed = 7.67


* * *

compounds and their reported Relative Potentiation for GABAA1
# measurement target: GABAA receptor α1β2γ2 (Homo sapiens, UniProt P14867+P18507)
# Construct: expressed in transfected cells; host or cells: Xenopus laevis oocytes injected with cRNA
# Sequence (P14867 28-456): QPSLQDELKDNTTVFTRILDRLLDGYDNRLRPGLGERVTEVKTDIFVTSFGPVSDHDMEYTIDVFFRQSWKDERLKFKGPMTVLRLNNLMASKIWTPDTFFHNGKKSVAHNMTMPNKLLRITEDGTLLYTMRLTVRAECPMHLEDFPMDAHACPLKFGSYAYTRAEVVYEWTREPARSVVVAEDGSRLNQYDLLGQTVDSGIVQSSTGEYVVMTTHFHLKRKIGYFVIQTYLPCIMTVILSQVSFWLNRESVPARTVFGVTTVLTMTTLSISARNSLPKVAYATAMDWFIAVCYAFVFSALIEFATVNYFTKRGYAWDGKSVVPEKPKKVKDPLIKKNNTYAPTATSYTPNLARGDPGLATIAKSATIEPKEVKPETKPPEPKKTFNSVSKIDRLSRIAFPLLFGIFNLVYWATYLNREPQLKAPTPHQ
# Sequence (P47870 25-512 partner limits assumed): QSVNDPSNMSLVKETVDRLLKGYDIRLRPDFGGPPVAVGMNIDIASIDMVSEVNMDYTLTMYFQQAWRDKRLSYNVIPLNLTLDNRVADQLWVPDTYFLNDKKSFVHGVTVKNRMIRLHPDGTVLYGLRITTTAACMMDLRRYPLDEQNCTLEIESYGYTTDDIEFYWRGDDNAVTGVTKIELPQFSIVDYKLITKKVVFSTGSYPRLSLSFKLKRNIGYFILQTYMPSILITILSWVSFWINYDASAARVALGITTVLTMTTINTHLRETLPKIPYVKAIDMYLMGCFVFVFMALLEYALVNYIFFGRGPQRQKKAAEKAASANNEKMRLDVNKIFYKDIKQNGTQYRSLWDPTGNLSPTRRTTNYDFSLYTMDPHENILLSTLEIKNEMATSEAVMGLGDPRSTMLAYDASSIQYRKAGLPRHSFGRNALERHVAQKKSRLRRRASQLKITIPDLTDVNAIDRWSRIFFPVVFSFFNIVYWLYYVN
# Sequence (P18507 40-475): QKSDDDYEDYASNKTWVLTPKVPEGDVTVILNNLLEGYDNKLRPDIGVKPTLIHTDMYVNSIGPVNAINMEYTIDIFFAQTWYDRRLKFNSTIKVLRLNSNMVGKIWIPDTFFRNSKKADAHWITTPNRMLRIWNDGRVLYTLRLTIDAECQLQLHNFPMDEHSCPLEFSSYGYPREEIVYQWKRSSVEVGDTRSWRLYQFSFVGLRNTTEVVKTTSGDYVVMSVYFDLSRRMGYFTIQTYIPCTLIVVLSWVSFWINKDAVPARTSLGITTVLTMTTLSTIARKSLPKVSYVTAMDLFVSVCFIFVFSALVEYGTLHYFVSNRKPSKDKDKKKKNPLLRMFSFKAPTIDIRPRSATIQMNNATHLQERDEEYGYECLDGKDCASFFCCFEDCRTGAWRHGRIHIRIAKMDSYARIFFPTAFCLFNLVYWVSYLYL
# assay notes: Two-electrode voltage-clamp potentiation of GABA EC10 current in Xenopus oocytes, GABAA1
# Assay type: cell-based
# condition description: percentage potentiation of GABA EC10 current divided by that of diazepam
# Procedure: GABAA receptors were heterologously expressed in Xenopus oocytes by injecting cRNA corresponding to human α1, α2, α3, α5, β2, P3 and γ2 subunits of the GABAA receptor genes. […] Modulatory effect of test compound is determined and compared across subtypes. […] All measurements were done in a medium containing ND-96 (96 NaCl, 2 KCl, 1.8 CaCl2.2H2O, 1 MgCl2.6H2O, 5 HEPES, in mM, pH 7.5). […] The concentration of GABA corresponded to the EC10 value calculated for each oocyte. […]
property measured: Relative Potentiation for GABAA1

[[record]]
molecule = "N#Cc1cncc(-c2cccc3c(N)c4c(nc23)CN(C2CCC2)C4=O)c1"
value_observed = 0.048

[[record]]
molecule = "Nc1c2c(nc3c(-c4cccnc4F)c(F)ccc13)CN(C1CCC1)C2=O"
value_observed = 0.018

[[record]]
molecule = "COc1ccc(CN2Cc3nc4c(-c5cnccc5OC)cccc4c(N)c3C2=O)cc1"
value_observed = 0.32

[[record]]
molecule = "Nc1c2c(nc3c(-c4ccncc4)cccc13)CN(C1CCC1)C2=O"
value_observed = 0.079

[[record]]
molecule = "COc1ncccc1-c1c(F)ccc2c(N)c3c(nc12)CN(C1CCC1)C3=O"
value_observed = "−0.01"


* * *

# measurement target: GABAA receptor α1β2γ2 (Homo sapiens, UniProt P14867+P18507)
# Construct: expressed in transfected cells; host or cells: Xenopus laevis oocytes injected with cRNA
# assay notes: Two-electrode voltage-clamp potentiation of GABA EC10 current in Xenopus oocytes, GABAA1
# Assay type: cell-based
# condition description: percentage potentiation of GABA EC10 current divided by that of diazepam
Catalogue of Relative Potentiation for GABAA1 readings, one per entry.
property measured: Relative Potentiation for GABAA1

[[record]]
molecule = "COc1cncc(-c2cccc3c(N)c4c(nc23)CN(C2CCC2)C4=O)c1"
value_observed = 0.038

[[record]]
molecule = "CCCN1Cc2nc3c(-c4ccccc4C)cccc3c(N)c2C1=O"
value_observed = 0.35

[[record]]
molecule = "CCCCN1Cc2nc3c(-c4cc(C)ccc4OC)cccc3c(N)c2C1=O"
value_observed = 0.56

[[record]]
molecule = "CCN1Cc2nc3c(-c4ccc(OC)cc4F)c(F)ccc3c(N)c2C1=O"
value_observed = "−0.04"

[[record]]
molecule = "COc1ccc([C@@H](C)N2Cc3nc4c(-c5c(F)cccc5OC)cccc4c(N)c3C2=O)cc1"
value_observed = "−0.008"

[[record]]
molecule = "CCCN1Cc2nc3c(-c4cc(OC)c(OC)c(OC)c4)cccc3c(N)c2C1=O"
value_observed = 0.96

[[record]]
molecule = "CCN1Cc2nc3c(-c4ccccc4C#N)cccc3c(N)c2C1=O"
value_observed = "−0.11"

[[record]]
molecule = "CCCN1Cc2nc3c(-c4ccc(OC)cc4OC)c(F)ccc3c(N)c2C1=O"
value_observed = 0.39

[[record]]
molecule = "CCN1Cc2nc3c(-c4c(F)cccc4OC)cccc3c(N)c2C1=O"
value_observed = "−0.11"

[[record]]
molecule = "CCCN1Cc2nc3c(-c4ccc(OC)cc4C(F)(F)F)cccc3c(N)c2C1=O"
value_observed = 0.25

[[record]]
molecule = "CCN1Cc2nc3c(-c4cccc(OC)c4F)cccc3c(N)c2C1=O"
value_observed = 0.01

[[record]]
molecule = "COc1ccc(C)cc1-c1cccc2c(N)c3c(nc12)CN(C1CC1)C3=O"
value_observed = 0.28

[[record]]
molecule = "Nc1c2c(nc3c(-c4ccc(F)cc4F)cccc13)CN(C1CC1)C2=O"
value_observed = 0.018

[[record]]
molecule = "Nc1c2c(nc3c(-c4cccnc4F)cccc13)CN(C1CCC1)C2=O"
value_observed = "−0.002"

[[record]]
molecule = "CCN1Cc2nc3c(-c4c(F)cccc4OC)c(F)ccc3c(N)c2C1=O"
value_observed = "−0.12"

[[record]]
molecule = "COc1nnccc1-c1cccc2c(N)c3c(nc12)CN(C1CCC1)C3=O"
value_observed = 0.082

[[record]]
molecule = "COc1cnc(OC)c(-c2cccc3c(N)c4c(nc23)CN(C2CCC2)C4=O)c1"
value_observed = 0.087

[[record]]
molecule = "CCCN1Cc2nc3c(-c4cnc(OC)nc4OC)c(F)ccc3c(N)c2C1=O"
value_observed = 0.22

[[record]]
molecule = "CCCN1Cc2nc3c(-c4cccc(C)c4C)cccc3c(N)c2C1=O"
value_observed = 0.13

[[record]]
molecule = "CCCN1Cc2nc3c(-c4ccc(F)cc4F)cccc3c(N)c2C1=O"
value_observed = 0.39

[[record]]
molecule = "COc1ccc(CN2Cc3nc4c(-c5cc(C)nn5C)cccc4c(N)c3C2=O)cc1"
value_observed = 0.45

